# assay.overview: MRT in cynomolgus monkey at 1 mg/kg, po
# Format: ADME, organism-based, Macaca fascicularis
# conditions: in vivo
quantity.kind: MRT (h)
The reply should be a number in h, with the unit left off.

Some solved entries appear below for comparison.
{"columns": ["line.notation", "unit.info", "MRT"],
 "data": [
  ["Cc1ccc(-c2nc(=O)s[nH]2)c(-c2ccc([C@@H](C)N(CC3CC3)c3nc(C(=O)NS(=O)(=O)C4CC4)c(C4CC4)s3)cc2)c1", "h", 6.5],
  ["CONC(=O)c1ccc(C)cc1-c1ccc([C@@H](C)N(CC2CC2)c2nc(C(=O)NS(=O)(=O)C3CC3)c(C3CC3)s2)cc1", "h", 5.9]
]}

Okay, next one:
Ask: Endpoint output: MRT of `CNC(=O)c1ccc(C)cc1-c1ccc([C@@H](C)N(CC2CC2)c2nc(C(=O)NS(=O)(=O)C3CC3)c(C3CC3)s2)cc1` . Value?
Result: 6.1

====

# assay.overview: Drug concentration in cynomolgus monkey plasma at 1 mg/kg, po after 8 hrs
# Type: ADME, organism-based, Macaca fascicularis
quantity.kind: concentration at 8 h (ng/mL)
The reply should be a number in ng/mL, with the unit left off.

{"columns": ["line.notation", "concentration at 8 h, ng/mL"],
 "data": [
  ["Cc1ccc(-c2nc(=O)s[nH]2)c(-c2ccc([C@@H](C)N(CC3CC3)c3nc(C(=O)NS(=O)(=O)C4CC4)c(C4CC4)s3)cc2)c1", 2090]
]}

Ask: Endpoint output: concentration at 8 h of `Cc1ccc(-c2nc(=O)o[nH]2)c(-c2ccc([C@@H](C)N(CC3CC3)c3nc(C(=O)NS(=O)(=O)C4CC4)c(C)s3)cc2)c1` . Value?
Result: 233

Ask: Query `CNC(=O)c1ccc(C)cc1-c1ccc([C@@H](C)N(CC2CC2)c2nc(C(=O)NS(=O)(=O)C3CC3)c(C3CC3)s2)cc1` next
Result: 996

====

# target.under.test: Chemerin-like receptor 1 (Homo sapiens) (UniProt Q99788)
# Sequence (Q99788 whole entry): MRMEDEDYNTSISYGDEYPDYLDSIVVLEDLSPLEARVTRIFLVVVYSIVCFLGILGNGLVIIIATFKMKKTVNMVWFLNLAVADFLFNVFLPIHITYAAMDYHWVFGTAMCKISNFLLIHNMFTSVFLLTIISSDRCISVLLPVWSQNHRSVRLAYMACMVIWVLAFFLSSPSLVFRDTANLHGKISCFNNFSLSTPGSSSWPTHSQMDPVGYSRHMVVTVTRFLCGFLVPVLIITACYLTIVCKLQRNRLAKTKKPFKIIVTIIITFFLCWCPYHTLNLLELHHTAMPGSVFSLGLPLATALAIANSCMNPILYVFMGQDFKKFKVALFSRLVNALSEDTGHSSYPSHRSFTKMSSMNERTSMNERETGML
# conditions: CAL1
# Description: Inhibition of human ChemR23 expressed in CAL-1 cells assessed as reduction in chemerin-induced calcium signaling
Listing of entries alongside the reported IC80.
The reply should be a number in nM, with the unit left off.

{"columns": ["molecule", "IC80 / nM"],
 "data": [
  ["CNC(=O)c1ccc(Cl)cc1-c1ccc([C@@H](C)N(CC2CC2)c2nc(C(=O)NS(=O)(=O)C3CC3)c(C3CC3)s2)cc1", 9],
  ["Cc1ccc(-c2nc(=O)o[nH]2)c(-c2ccc([C@@H](C)N(CC3CC3)c3nc(C(=O)NS(=O)(=O)C4CC4)c(CC(C)C)s3)cc2)c1", 42],
  ["Cc1ccc(-c2nc(=O)o[nH]2)c(-c2ccc([C@@H](C)N(CC3CC3)c3nc(C(=O)NS(=O)(=O)C4CC4)c(C(C)C)s3)cc2)c1", 18]
]}

Okay, next one:
Ask: Endpoint output: IC80 of `CCc1sc(N(CC2CC2)[C@H](C)c2ccc(-c3cc(C)ccc3-c3nc(=O)o[nH]3)cc2)nc1C(=O)NS(=O)(=O)C1CC1` . Value?
Result: 63

====

Listing of entries alongside the reported Tmax.
# assay.overview: Tmax in cynomolgus monkey at 0.3 to 1 mg/kg, po
# Type: ADME, organism-based, Macaca fascicularis
# conditions: in vivo, dose 0.3-1 mg/kg
The reply should be a number in h, with the unit left off.

{"columns": ["line.notation", "Tmax (h)"],
 "data": [
  ["Cc1ccc(-c2nc(=O)o[nH]2)c(-c2ccc([C@@H](C)N(CC3CC3)c3nc(C(=O)NS(=O)(=O)C4CC4)c(CC(C)C)s3)cc2)c1", 2.7]
]}

Ask: Endpoint output: Tmax of `Cc1ccc(-c2nc(=O)o[nH]2)c(-c2ccc([C@@H](C)N(CC3CC3)c3nc(C(=O)NS(=O)(=O)C4CC4)c(C4CCC4)s3)cc2)c1` . Value?
Result: 2.7

Ask: Query `Cc1ccc(-c2nc(=O)o[nH]2)c(-c2ccc([C@@H](C)N(CC3CC3)c3nc(C(=O)NS(=O)(=O)C4CC4)c(C(C)C)s3)cc2)c1` next
Result: 4

Ask: Query `COCCc1sc(N(CC2CC2)[C@H](C)c2ccc(-c3cc(C)ccc3-c3nc(=O)o[nH]3)cc2)nc1C(=O)NS(=O)(=O)C1CC1` next
Result: 2.7

Ask: Query `CCc1sc(N(CC2CC2)[C@H](C)c2ccc(-c3cc(C)ccc3-c3nc(=O)o[nH]3)cc2)nc1C(=O)NS(=O)(=O)C1CC1` next
Result: 1.7

Ask: Query `Cc1ccc(-c2nc(=O)o[nH]2)c(-c2ccc([C@@H](C)N(CC3CC3)c3nc(C(=O)NS(=O)(=O)C4CC4)c(C4CC4)s3)cc2)c1` next
Result: 2.7

Ask: Query `Cc1ccc(-c2nc(=O)o[nH]2)c(-c2ccc([C@@H](C)N(CC3CC3)c3nc(C(=O)NS(=O)(=O)C4CC4)c(C)s3)cc2)c1` next
Result: 3.3
